inhibition at 20 µM values for the compounds below.
- system: UniProt P0DTD1
- assayText: biochemical
- recordedConditions: Table S1; 20 µM; L-cysteine buffer; average (SD); read-out: HP PLpro-NAB SARS-CoV-2 inhibition [%] 20 µM triplicates L-CYS BUFFER
reportedProperty: inhibition at 20 µM (%)

compound=COCCn1c2c([n+](Cc3cnccn3)c1C)C(=O)c1ccccc1C2=O reportedproperty="inhibition at 20 µM" unitannotation=% resultvalue=-5.61
compound=Cc1cc(-c2ccc(/N=N/c3ccc4c(S(=O)(=O)O)cc(S(=O)(=O)O)c(N)c4c3O)c(C)c2)ccc1/N=N/c1ccc2c(S(=O)(=O)O)cc(S(=O)(=O)O)c(N)c2c1O reportedproperty="inhibition at 20 µM" unitannotation=% resultvalue=-67.8
compound=O=C1C(=O)c2ccccc2-c2ccccc21 reportedproperty="inhibition at 20 µM" unitannotation=% resultvalue=-40.8
compound=CC1(C)CCC2=C(O1)c1ccccc1C(=O)C2=O reportedproperty="inhibition at 20 µM" unitannotation=% resultvalue=-37.4
compound=O=C1C=CC(=O)c2c(O)cccc21 reportedproperty="inhibition at 20 µM" unitannotation=% resultvalue=-14.8
compound="CC[n+]1c(-c2ccccc2)c2cc(N)ccc2c2ccc(N)cc21 [Homidium Bromide]" reportedproperty="inhibition at 20 µM" unitannotation=% resultvalue=18.3
compound="Cc1cccc2c3c(ccc12)C1=C(C(=O)C3=O)[C@@H](C)CO1 [Dihydrotanshinone I]" reportedproperty="inhibition at 20 µM" unitannotation=% resultvalue=-176
compound=C[C@H]1COC2=C1C(=O)C(=O)c1c2ccc2c1CCCC2(C)C reportedproperty="inhibition at 20 µM" unitannotation=% resultvalue=-71.4

* * *

- system: SARS-CoV-2 PLpro-NAB (Severe acute respiratory syndrome coronavirus 2)
- assayText: biochemical
- recordedConditions: HP PLpro-NAB IC50 [μM] duplicates 1 mM L-cys buffer, hit profiling; 1 mM L-cys buffer
reportedProperty: IC50 (µM)

itemsmiles=O=c1c(O)cccc2cc(O)c(O)c(O)c12 system="SARS-CoV-2 PLpro-NAB (Severe acute respiratory syndrome coronavirus 2)" reportedproperty=IC50 resultvalue=1.03

* * *

- system: SARS-CoV-2 PLpro-NAB (Severe acute respiratory syndrome coronavirus 2)
- assayText: biochemical
- recordedConditions: read-out: HP PLpro-NAB IC50 [μM] triplicates 1 mM DTT buffer; hit profiling; 1 mM DTT buffer
IC50 values for the compounds below.
reportedProperty: IC50 (µM)

itemsmiles=N#CSc1cc(SC#N)c(N)nc1N unitannotation=µM operator== resultvalue=1.39
itemsmiles=O=C(Nc1ccccc1-c1cn2c(CN3CCNCC3)csc2n1)c1cnc2ccccc2n1 unitannotation=µM operator=> resultvalue=20

* * *

- system: SARS-CoV-2 PLpro-NAB (Severe acute respiratory syndrome coronavirus 2)
- assayText: biochemical
- recordedConditions: Table S1; DTT buffer; read-out: HP PLpro-NAB SARS-CoV-2 IC50 [µM] triplicates DTT BUFFER
Structures can show the parent of a compound that is named as a salt.
reportedProperty: IC50 (µM)

molecule=CC1(C)CCC2=C(O1)c1ccccc1C(=O)C2=O operator== resultvalue=4.71
molecule="CC[N+](C)(CC)CCC[n+]1c(-c2ccccc2)c2cc(N)ccc2c2ccc(N)cc21.[I-].[I-] [Propidium-Iodide]" operator== resultvalue=0.24
molecule="Cc1cccc2c3c(ccc12)C1=C(C(=O)C3=O)[C@@H](C)CO1 [Dihydrotanshinone I]" operator== resultvalue=0.92
molecule=Cn1cccc1/C=C1\C(=O)NC(=O)c2ccccc21 operator== resultvalue=6.17
molecule=COc1cccc2c(NCc3ccccc3)nc(-n3c(N)nc4ccccc43)nc12 operator=> resultvalue=20
molecule="CN(C)CCNc1nc2cc(O)ccc2c2c1C(=O)c1ccccc1-2.Cl.Cl [TAS-103 (dihydrochloride)]" operator== resultvalue=5.94
molecule="O=c1ccc2[n+]([O-])c3ccc(O)cc3oc-2c1 [Resazurin (sodium salt), Resazurin]" operator=> resultvalue=20
molecule=O=C1C=CC(=O)c2c(O)cccc21 operator=> resultvalue=20
molecule="CCOC(=O)C1=C(C)N=c2sc(=Cc3ccc(OCC(=O)O)cc3)c(=O)n2C1c1ccc(SC)cc1 (stereo not drawn)" operator== resultvalue=3.14
